target: full length monkey MSR1 on HEK293.mfMSR1 cells (Macaca fascicularis); assay: ECL cell binding, HEK293.mfMSR1 cells
Sequence (chain, as listed by the source): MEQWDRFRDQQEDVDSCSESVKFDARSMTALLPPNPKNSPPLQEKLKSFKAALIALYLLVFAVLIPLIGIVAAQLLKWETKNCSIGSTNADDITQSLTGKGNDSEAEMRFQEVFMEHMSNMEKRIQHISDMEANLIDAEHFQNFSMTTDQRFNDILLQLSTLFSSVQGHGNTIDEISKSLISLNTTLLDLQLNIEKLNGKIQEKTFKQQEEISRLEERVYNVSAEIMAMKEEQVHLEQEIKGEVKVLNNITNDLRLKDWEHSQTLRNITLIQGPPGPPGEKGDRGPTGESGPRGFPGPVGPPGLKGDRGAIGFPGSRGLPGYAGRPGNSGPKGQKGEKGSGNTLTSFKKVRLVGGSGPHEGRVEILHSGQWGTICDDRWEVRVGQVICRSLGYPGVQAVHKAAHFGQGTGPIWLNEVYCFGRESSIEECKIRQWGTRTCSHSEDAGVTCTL
outcomeMeasure: ratio of 11 nM antibody binding signal (RLU) to isotype control
Answers are plain numbers.

INSERT INTO results (binder, number) VALUES
  ('H1H21227N-N297Q (antibody, human IgG1, V domains shown) VH: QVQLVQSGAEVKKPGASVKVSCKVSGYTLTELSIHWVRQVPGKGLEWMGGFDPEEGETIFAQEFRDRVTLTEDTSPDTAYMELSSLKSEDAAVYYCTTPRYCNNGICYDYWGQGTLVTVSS VL: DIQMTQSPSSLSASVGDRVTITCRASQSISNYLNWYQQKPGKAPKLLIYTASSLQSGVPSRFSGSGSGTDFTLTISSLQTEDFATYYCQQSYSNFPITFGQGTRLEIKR', 23),
  ('H1H21231N-N297Q (antibody, human IgG1, V domains shown) VH: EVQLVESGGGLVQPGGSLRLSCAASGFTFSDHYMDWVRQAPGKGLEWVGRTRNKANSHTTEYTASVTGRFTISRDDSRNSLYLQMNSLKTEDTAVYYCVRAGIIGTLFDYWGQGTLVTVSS VL: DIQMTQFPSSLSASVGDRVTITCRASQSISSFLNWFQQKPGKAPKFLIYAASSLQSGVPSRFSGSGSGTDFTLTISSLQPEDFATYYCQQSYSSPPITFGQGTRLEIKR', 69),
  ('H1H21234N (antibody, human IgG1, V domains shown) VH: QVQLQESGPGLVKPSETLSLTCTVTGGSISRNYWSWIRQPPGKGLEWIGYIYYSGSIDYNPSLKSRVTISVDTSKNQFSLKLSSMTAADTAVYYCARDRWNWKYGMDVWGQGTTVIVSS VL: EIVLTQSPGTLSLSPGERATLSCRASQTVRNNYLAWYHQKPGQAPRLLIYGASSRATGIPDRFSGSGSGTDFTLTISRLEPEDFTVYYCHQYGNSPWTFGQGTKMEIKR', 31),
  ('H1H21231N (antibody, human IgG1, V domains shown) VH: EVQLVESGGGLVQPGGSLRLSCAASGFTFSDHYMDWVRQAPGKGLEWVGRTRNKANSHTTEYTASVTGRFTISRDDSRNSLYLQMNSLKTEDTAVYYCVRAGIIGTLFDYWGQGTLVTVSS VL: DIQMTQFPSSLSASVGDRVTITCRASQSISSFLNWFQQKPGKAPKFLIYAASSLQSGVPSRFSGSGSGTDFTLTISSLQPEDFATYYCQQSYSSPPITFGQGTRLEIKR', 75),
  ('H1H27729P-N297Q (antibody, human IgG1, V domains shown) VH: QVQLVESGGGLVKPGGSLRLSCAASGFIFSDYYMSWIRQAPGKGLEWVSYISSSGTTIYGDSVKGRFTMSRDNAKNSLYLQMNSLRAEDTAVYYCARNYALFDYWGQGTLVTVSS VL: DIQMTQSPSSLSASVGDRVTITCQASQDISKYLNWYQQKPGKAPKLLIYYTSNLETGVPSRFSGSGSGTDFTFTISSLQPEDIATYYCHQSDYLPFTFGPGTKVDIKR', 6);

Go through the list and state ratio of 11 nM antibody binding signal (RLU) to isotype control for each entry.
1. H1H21234N-N297Q (antibody, human IgG1, V domains shown) VH: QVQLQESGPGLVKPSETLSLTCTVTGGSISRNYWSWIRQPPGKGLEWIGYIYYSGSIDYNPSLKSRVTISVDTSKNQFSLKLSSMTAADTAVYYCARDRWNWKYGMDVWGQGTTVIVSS VL: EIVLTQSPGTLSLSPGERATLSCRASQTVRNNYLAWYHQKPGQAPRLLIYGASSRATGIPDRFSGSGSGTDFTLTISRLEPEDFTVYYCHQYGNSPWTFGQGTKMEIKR
2. H1H27739P-N297Q (antibody, human IgG1, V domains shown) VH: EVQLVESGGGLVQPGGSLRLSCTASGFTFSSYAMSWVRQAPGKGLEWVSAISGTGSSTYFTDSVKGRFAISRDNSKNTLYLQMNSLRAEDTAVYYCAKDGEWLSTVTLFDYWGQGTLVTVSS VL: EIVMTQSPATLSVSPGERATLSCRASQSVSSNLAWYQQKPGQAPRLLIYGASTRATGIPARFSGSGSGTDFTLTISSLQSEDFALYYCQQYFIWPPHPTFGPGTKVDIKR
3. H1H27754P-N297Q (antibody, human IgG1, V domains shown) VH: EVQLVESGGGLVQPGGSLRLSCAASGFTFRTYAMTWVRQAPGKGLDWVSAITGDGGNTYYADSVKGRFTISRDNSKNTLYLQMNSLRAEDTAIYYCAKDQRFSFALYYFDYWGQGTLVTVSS VL: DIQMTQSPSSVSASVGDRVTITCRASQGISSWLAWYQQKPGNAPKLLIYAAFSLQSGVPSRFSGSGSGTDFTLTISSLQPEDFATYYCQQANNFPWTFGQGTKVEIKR
4. H1H27747P-N297Q (antibody, human IgG1, V domains shown) VH: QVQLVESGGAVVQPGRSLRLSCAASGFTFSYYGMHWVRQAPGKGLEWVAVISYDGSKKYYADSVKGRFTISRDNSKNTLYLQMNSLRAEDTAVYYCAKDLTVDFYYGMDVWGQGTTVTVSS VL: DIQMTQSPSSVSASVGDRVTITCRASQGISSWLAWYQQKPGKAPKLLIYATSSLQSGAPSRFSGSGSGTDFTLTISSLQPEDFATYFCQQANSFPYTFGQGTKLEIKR
5. H1H21227N (antibody, human IgG1, V domains shown) VH: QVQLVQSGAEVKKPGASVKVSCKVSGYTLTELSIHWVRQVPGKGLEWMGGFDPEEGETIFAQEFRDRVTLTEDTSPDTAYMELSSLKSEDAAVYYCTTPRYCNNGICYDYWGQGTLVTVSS VL: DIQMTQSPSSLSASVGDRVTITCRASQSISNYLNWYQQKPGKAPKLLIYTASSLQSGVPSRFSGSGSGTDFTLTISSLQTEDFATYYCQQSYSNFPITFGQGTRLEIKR

[35, 20, 53, 21, 26]

What ratio of 11 nM antibody binding signal (RLU) to isotype control value was documented for this binder, H2aM25695N (antibody, mouse IgG2a, V domains shown) VH: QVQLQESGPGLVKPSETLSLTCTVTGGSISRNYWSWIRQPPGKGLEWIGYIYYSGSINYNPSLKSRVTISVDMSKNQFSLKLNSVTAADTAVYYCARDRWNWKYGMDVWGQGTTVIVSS VL: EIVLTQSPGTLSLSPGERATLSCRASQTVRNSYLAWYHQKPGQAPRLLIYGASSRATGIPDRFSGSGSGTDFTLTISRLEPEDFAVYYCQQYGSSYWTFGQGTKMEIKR ?
45
